TESTED ON: Nuclear receptor subfamily 1 group I member 2 (Homo sapiens)

{"columns": ["COMPOUND", "IC50 (nM)"],
 "data": [
  ["CCC(O)(c1ccc(N(CC(F)(F)F)S(=O)(=O)c2ccccc2)cc1)C(F)(F)F (stereo unspecified)", 251]
]}

* * *

TESTED ON: Nuclear receptor subfamily 1 group I member 2 (Homo sapiens, UniProt O75469)
Sequence (O75469 whole entry): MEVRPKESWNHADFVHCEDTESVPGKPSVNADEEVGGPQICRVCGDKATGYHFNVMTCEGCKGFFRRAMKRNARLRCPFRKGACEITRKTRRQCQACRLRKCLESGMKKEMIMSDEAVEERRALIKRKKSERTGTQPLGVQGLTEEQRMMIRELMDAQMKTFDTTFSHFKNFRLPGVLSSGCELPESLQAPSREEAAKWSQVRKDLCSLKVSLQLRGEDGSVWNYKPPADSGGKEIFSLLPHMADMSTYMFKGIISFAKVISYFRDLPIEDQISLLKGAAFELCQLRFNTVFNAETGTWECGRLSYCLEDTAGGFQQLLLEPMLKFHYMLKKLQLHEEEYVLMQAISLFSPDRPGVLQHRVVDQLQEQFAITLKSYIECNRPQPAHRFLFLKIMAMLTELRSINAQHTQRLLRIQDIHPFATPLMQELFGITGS
TEST PROTOCOL: Competition Ligand Binding Assay and Transient Transfection Assay
CONDITIONS USED: pH 8; 22 °C
pEC50: −log10 of the molar value.
Catalogue of pEC50 values
READOUT LABEL: pEC50

{"columns": ["MOLECULE", "TESTED ON", "ASSAY VALUE"],
 "data": [
  ["O=S(=O)(c1ccccc1)N(CC(F)(F)F)c1ccc(C(O)(C2CCCCC2)C(F)(F)F)cc1 (configuration not stated)", "Nuclear receptor subfamily 1 group I member 2 (Homo sapiens, UniProt O75469)", 8.52],
  ["CCC(O)(c1ccc(N(CC(F)(F)F)S(=O)(=O)c2ccccc2)cc1)C(F)(F)F (configuration not stated)", "Nuclear receptor subfamily 1 group I member 2 (Homo sapiens, UniProt O75469)", 6.90]
]}
